Recorded values, source PubChem BioAssay (NCI).

Experiment: NCI Yeast Anticancer Drug Screen. Data for the bub3 strain (AID 167)
Details: S. cerevisiae bub3 mutant strain, at 50.0 µM, active compounds read high
Procedure: Growth inhibition of yeast strains with defined genetic alterations is measured as a screen for potential anti-cancer activity. Selected strains with alterations in DNA damage repair or cell cycle control were exposed to compounds and growth inhibition was measured relative to vehicle treated controls. The strain used in this assay is bub3
About 79,000 compounds went through this panel and 15% of them were active in at least one assay; those are over-represented in the sample as a whole.
So I've got a bunch of molecules here, and I need their growth inhibition values.
One number for each entry, in %.

Below, 5 molecules whose answers are already recorded.
molecule	growth inhibition [%]
COC(=O)c1ccc(S(=O)(=O)O)cc1[N+](=O)[O-]	11.8
Cc1ccc(C(=O)C2=CN=C3C(=O)N(c4ccccc4)N(C)C3(C)C2=N)cc1 (stereo not drawn)	4.9
CN(C)S(=O)(=O)c1ccc(Cl)cc1	-0.2
CN1CC=C(C#CC(C)(C)O)CC1	-5.9
CCCC1OCC(CC)C(CCC)O1 (stereo not drawn)	7.4

// input: 5 molecules below; output: growth inhibition for each
1. Cc1cc([N+](=O)[O-])ccc1NC(=O)C(Br)C(Br)C(=O)O (stereo not drawn)
2. Clc1ccc(-c2csc3nc(-c4cccs4)nn23)cc1
3. Nc1ccc(C(=O)O)c(N)c1
4. C[n+]1nc([O-])oc1-c1ccccc1
5. Cn1c[n+](C)c([S-])n1

Given back:
[75.8, -6.95, -22.5, -4.6, 3]

// input: 3 molecules below; output: growth inhibition for each
1. O=[N+]([O-])c1ccc(N=Cc2ccccc2O)c(O)c1
2. CC(C(O)c1ccc(Cl)cc1)C(O)(C(F)(F)F)C(F)(F)F (stereo not drawn)
3. CCNC(CCCC1CCCCC1)C(=O)O (stereo not drawn)

Given back:
20.8
99
-18.5
